ASSAY_TARGET: human alpha-7 nAChR (Homo sapiens, UniProt P36544)
Construct: expressed in transfected cells; host or cells: Xenopus laevis oocytes (cRNA injection)
Sequence (P36544 23-502): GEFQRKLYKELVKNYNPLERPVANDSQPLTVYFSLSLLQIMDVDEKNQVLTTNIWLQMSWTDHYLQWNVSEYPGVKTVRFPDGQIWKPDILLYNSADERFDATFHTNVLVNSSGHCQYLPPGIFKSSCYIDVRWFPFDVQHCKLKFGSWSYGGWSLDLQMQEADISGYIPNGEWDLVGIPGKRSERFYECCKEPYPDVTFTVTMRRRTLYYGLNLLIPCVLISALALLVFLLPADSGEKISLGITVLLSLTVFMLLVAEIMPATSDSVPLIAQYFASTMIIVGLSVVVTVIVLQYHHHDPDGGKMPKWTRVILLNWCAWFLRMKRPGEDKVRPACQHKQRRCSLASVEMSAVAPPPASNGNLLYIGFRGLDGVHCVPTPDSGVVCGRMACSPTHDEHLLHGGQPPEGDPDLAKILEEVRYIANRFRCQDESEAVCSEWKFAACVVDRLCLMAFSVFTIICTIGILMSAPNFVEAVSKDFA
PROTOCOL: Two-electrode voltage clamp of alpha-7 nAChR expressed in Xenopus oocytes (net charge)
Format: cell-based
MEASUREMENT_CONDITIONS: compound together with choline or ACh; includes PAM and ago-PAM activity; area under the curve of current vs. time
MEASUREMENT_KIND: Charge +C

MOLECULE	Charge +C
O=S(=O)(c1ccc2c(c1)[C@H]1C=CC[C@H]1[C@@H](c1ccc(Br)cc1)N2)N1CCCC1	Inactive
COC(=O)Nc1ccc([C@H]2Nc3ccc(S(N)(=O)=O)cc3[C@H]3C=CC[C@H]32)cc1	480
O=S(=O)(NC1CCCCC1)c1ccc2c(c1)[C@H]1C=CC[C@H]1[C@@H](c1ccc(Br)cc1)N2 (stereo in doubt)	Inactive
NS(=O)(=O)c1ccc2c(c1)[C@H]1C=CC[C@H]1[C@@H](c1ccc(N=C=S)cc1)N2 (stereo in doubt)	22
NS(=O)(=O)c1ccc2c(c1)[C@H]1C=CC[C@H]1[C@@H](c1cc3ccccc3s1)N2 (stereo in doubt)	528

Input: // fetch human alpha-7 nAChR (Homo sapiens, UniProt P36544) Charge +C for NS(=O)(=O)c1ccc2c(c1)[C@H]1C=CC[C@H]1[C@@H](C1CCCCC1)N2 (stereo in doubt)
Output: Inactive

Input: // fetch human alpha-7 nAChR (Homo sapiens, UniProt P36544) Charge +C for O=C(O)c1ccc2c(c1)[C@H]1C=CC[C@H]1[C@@H](c1ccc(Br)cc1)N2 (stereo in doubt)
Output: Inactive

Input: // fetch human alpha-7 nAChR (Homo sapiens, UniProt P36544) Charge +C for O=S(=O)(c1ccc2c(c1)[C@@H]1C=CC[C@@H]1[C@H](c1ccc(Br)cc1)N2)N1CCCC1
Output: Inactive

Data credit: patent US11299496B2
